molecular target: UniProt P14902; test: HeLa cell-based indoleamine 2,3-dioxygenase (IDO) assay (kynurenine production, IFNγ-stimulated); details: HeLa cells, IFNγ 25 ng/mL, 48 hour incubation; read-out: IDO Hela IC50
Sequence (P14902 whole entry): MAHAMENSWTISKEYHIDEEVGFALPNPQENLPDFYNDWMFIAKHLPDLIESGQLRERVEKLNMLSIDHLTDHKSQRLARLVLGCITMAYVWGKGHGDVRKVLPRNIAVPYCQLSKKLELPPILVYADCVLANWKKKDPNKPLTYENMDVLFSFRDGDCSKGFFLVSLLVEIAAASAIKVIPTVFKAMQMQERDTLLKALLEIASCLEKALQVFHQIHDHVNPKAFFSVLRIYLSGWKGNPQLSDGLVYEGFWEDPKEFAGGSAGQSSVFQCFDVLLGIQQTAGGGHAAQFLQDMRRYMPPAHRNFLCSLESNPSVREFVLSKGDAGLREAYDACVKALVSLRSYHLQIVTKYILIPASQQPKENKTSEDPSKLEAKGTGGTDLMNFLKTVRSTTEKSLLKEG
Response field label takes 1.0 when IC50 is strictly below 80 nM and 0.0 in all other cases.

// below: answered compounds
CCC(NC(=O)c1ccc(N)nc1)[C@H]1CC[C@@H](c2ccnc(OC)c2C)CC1 (single isomer, unassigned) [Example 29b]    1.0
CC[C@@H](NC(=O)c1ccc(OC)nc1)[C@H]1CC[C@@H](c2ccnc(F)c2C)CC1 (single isomer, unassigned) [Example 56b]    0.0
CC[C@@H](NC(=O)c1cnc(OC)nc1)[C@H]1CC[C@@H](c2ccnc3c(F)cccc32)CC1 (single isomer, unassigned) [Example 60b]    0.0

Problem: I wonder whether COc1ccc(C(=O)NC(CC#N)[C@H]2CC[C@@H](c3ccnc4ccc(F)cc43)CC2)cn1 (mixture of isomers) [Example 54] has IC50 below 80 nM. Can you tell?
Result: 1.0

Problem: I wonder whether CCC(NC(=O)c1ccc(OC)nc1)C1CCC(c2cccc(OC(F)F)n2)CC1 (single isomer, unassigned) [Example 48a] has IC50 below 80 nM. Can you tell?
Result: 0.0

Problem: I wonder whether CC[C@@H](NC(=O)c1ccc(OC)nc1)[C@H]1CC[C@@H](c2ccn(C)c(=O)c2)CC1 (single isomer, unassigned) [Example 31b] has IC50 below 80 nM. Can you tell?
Result: 0.0

Problem: I wonder whether CCC(NC(=O)c1cnc(C)nc1)C1CCC(c2ccnc(OC)c2F)CC1 (stereo not shown) [Example 23] has IC50 below 80 nM. Can you tell?
Result: 0.0

Problem: I wonder whether CCC(NC(=O)c1ccc(OC)nc1)C1CCC(c2ccnc3ccc(C(F)(F)F)cc23)CC1 (single isomer, unassigned) [Example 11a] has IC50 below 80 nM. Can you tell?
Result: 0.0

Problem: I wonder whether CCC(NC(=O)c1ccc(OC)nc1)C1CCC(c2cccc(OC(F)F)n2)CC1 (single isomer, unassigned) [Example 48c] has IC50 below 80 nM. Can you tell?
Result: 0.0

Problem: I wonder whether CC[C@H](NC(=O)c1cnc(C)nc1)[C@H]1CC[C@H](c2ccnc3c(F)cccc32)CC1 (single isomer, unassigned) [Example 61b] has IC50 below 80 nM. Can you tell?
Result: 0.0

Problem: I wonder whether COCCOCC(NC(=O)c1cnc(OC)nc1)C1CCC(c2ccnc3ccc(F)cc23)CC1 (single isomer, unassigned) [Example 16a] has IC50 below 80 nM. Can you tell?
Result: 1.0

Problem: I wonder whether CCC(NC(=O)c1ccc(OC)nc1)[C@H]1CC[C@@H](c2nccc(C)n2)CC1 (single isomer, unassigned) [Example 49b] has IC50 below 80 nM. Can you tell?
Result: 1.0
